# assayed_system: NS3h 1b[con1]
# assay_overview: NS3h unwinding inhibitors, genotype 1b and 2a – biochemical, real-time fluorescence, strains con1 and JFH1, set 3, selectivity assay for HCV NS3 helicase inhibitor project, late-stage follow-up (AID 602275)
# condition_context: Recombinant NS3h
Calls of active or inactive are those of the source. The rule behind the calls is not given here.
Outcome (select one): active, inactive

Previously resolved entries follow.
Cc1ccc2nc(-c3ccc4nc(-c5ccc(NS(=O)(=O)c6ccc(C(F)(F)F)cc6)cc5)sc4c3)sc2c1S(=O)(=O)O = active
Cc1ccc2nc(-c3ccc4nc(-c5ccc(NC(=O)c6ccc(Br)cc6)cc5)sc4c3)sc2c1S(=O)(=O)O = active
Cc1ccc2nc(-c3ccc4nc(-c5ccc(NC(=O)c6ccccc6)cc5)sc4c3)sc2c1S(=O)(=O)O = active
O=C(CCCCCCC(=O)Nc1ccc(-c2nc3ccccc3[nH]2)cc1)Nc1ccc(-c2nc3ccccc3[nH]2)cc1 = active
Cc1ccc2nc(-c3ccc(NC(=O)c4ccc(NC(=O)c5ccccc5)cc4)cc3)sc2c1S(=O)(=O)O = inactive
Cc1ccc2nc(-c3ccc4nc(-c5ccc(NC(=O)c6ccc7ncoc7c6)cc5)sc4c3)sc2c1S(=O)(=O)O = active
Cc1ccc2nc(-c3ccc4nc(-c5ccc(NC(=O)c6ccc(N)cc6)cc5)sc4c3)sc2c1S(=O)(=O)O = active
Cc1ccc2nc(-c3ccc4nc(-c5ccc(NC(=O)c6cccc7ccccc67)cc5)sc4c3)sc2c1S(=O)(=O)O = active

State the result this test recorded for Cc1ccc2nc(-c3ccc4nc(-c5ccc(NC(=O)c6cccc(C(F)(F)F)c6F)cc5)sc4c3)sc2c1S(=O)(=O)O .
active

For Cc1ccc2nc(-c3ccc4nc(-c5ccc(NC(=O)c6ccc(C(F)(F)F)c(F)c6)cc5)sc4c3)sc2c1S(=O)(=O)O then?
active

For Cc1ccc2nc(-c3ccc(N)cc3)sc2c1S(=O)(=O)O then?
inactive

For Cc1ccc2nc(-c3ccc4nc(-c5ccc(NC(=O)c6cc(C(F)(F)F)ccc6F)cc5)sc4c3)sc2c1S(=O)(=O)O then?
active

For Cc1ccc2nc(-c3ccc4nc(-c5ccc(NC(=O)c6cc(F)cc(C(F)(F)F)c6)cc5)sc4c3)sc2c1S(=O)(=O)O then?
active

For Cc1ccc2nc(-c3ccc4nc(-c5ccc(NC(=O)c6ccc(C(F)(F)F)cc6)cc5)sc4c3)sc2c1S(=O)(=O)O then?
active

For Cc1ccc2nc(-c3ccc(NC(=O)c4ccc(NC(=O)Nc5ccccc5)cc4)cc3)sc2c1S(=O)(=O)O then?
active

---

# assayed_system: NS3h 2a[JFH1]
# assay_overview: NS3h unwinding inhibitors, genotype 1b and 2a – biochemical, real-time fluorescence, strains con1 and JFH1, set 3, selectivity assay for HCV NS3 helicase inhibitor project, late-stage follow-up (AID 602275)
# condition_context: Recombinant NS3h
Calls of active or inactive are those of the source. The rule behind the calls is not given here.
Outcome (select one): active, inactive

Cc1ccc2nc(-c3ccc4nc(-c5ccc(NC(=O)c6cc(C(F)(F)F)cc(C(F)(F)F)c6)cc5)sc4c3)sc2c1S(=O)(=O)O = active

State the result this test recorded for Cc1cc(C(O)(c2ccc(Nc3ccccc3)cc2)c2ccc(Nc3ccc(S(=O)(=O)O)cc3)cc2)ccc1N (stereo not drawn) .
active

For Cc1ccc2nc(-c3ccc4nc(-c5ccc(NC(=O)c6ccc(C(C)(C)C)cc6)cc5)sc4c3)sc2c1S(=O)(=O)O then?
active

For Cc1ccc2nc(-c3ccc(N)cc3)sc2c1S(=O)(=O)O then?
active

For Cc1ccc2nc(-c3ccc4nc(-c5ccc(NC(=O)c6ccc7ncoc7c6)cc5)sc4c3)sc2c1S(=O)(=O)O then?
active

For CCOc1ccc2c(NNC(=O)c3cnccn3)c3c(nc2c1)CCCC3 then?
inactive

For Cc1ccc2nc(-c3ccc4nc(-c5ccc(NC(=O)c6ccc(NC(=O)OCC7c8ccccc8-c8ccccc87)cc6)cc5)sc4c3)sc2c1S(=O)(=O)O then?
active

For COc1ccc(NC(=O)Nc2ccc(-c3nc4ccc(-c5nc6ccc(C)c(S(=O)(=O)O)c6s5)cc4s3)cc2)cc1 then?
active

---

# assayed_system: NS3h 2a[JFH1]
# assay_overview: NS3h unwinding inhibitors, genotype 1b and 2a – biochemical, real-time fluorescence, strains con1 and JFH1, set 3, selectivity assay for HCV NS3 helicase inhibitor project, late-stage follow-up (AID 602275)
# condition_context: Recombinant NS3h
The source made the active and inactive calls. No rule for the calls is given here.
Outcome (select one): active, inactive

Cc1ccc2nc(-c3ccc4nc(-c5ccc(NC(=O)c6ccc(Cl)cc6)cc5)sc4c3)sc2c1S(=O)(=O)O = active
Cc1ccc2nc(-c3ccc4nc(-c5ccc(NC(=O)c6ccc(C(F)(F)F)c(F)c6)cc5)sc4c3)sc2c1S(=O)(=O)O = active

State the result this test recorded for Cc1ccc2c(sc(-c3ccc4c(c3)sc(-c3ccc5c(c3)sc(-c3ccc(N(C)C)cc3)[n+]5C)[n+]4C)[n+]2C)c1S(=O)(=O)O (tested in a mixture with another compound) .
active

For Cc1ccc2nc(-c3ccc(NC(=S)Nc4ccccc4Br)cc3)sc2c1 then?
inactive

For Cc1ccc2nc(-c3ccc4nc(-c5ccc(NC(=O)c6c(F)cccc6C(F)(F)F)cc5)sc4c3)sc2c1S(=O)(=O)O then?
inactive

For CN1CCN(Cc2cc(CN3CCN(C)CC3)c(O)c(=O)c(CN3CCN(C)CC3)c2)CC1 then?
active

For O=C(CCCCCCC(=O)Nc1ccc(-c2nc3ccccc3[nH]2)cc1)Nc1ccc(-c2nc3ccccc3[nH]2)cc1 then?
active

---

# assayed_system: NS3h 1b[con1]
# assay_overview: NS3h unwinding inhibitors, genotype 1b and 2a – biochemical, real-time fluorescence, strains con1 and JFH1, set 3, selectivity assay for HCV NS3 helicase inhibitor project, late-stage follow-up (AID 602275)
# condition_context: Recombinant NS3h
property_name: IC50

Previously resolved entries follow.
Cc1ccc2nc(-c3ccc4nc(-c5ccc(NC(=O)c6ccc7nc(-c8ccc(N)cc8)sc7c6)cc5)sc4c3)sc2c1S(=O)(=O)O = 5.5 µM
Cc1ccc2nc(-c3ccc(NC(=O)c4ccc(NC(=O)c5ccc(NC(=O)OCC6c7ccccc7-c7ccccc76)cc5)cc4)cc3)sc2c1S(=O)(=O)O = 2.5 µM
O=C(Nc1ccc(-c2nc3ccccc3[nH]2)cc1)c1ccc2ncsc2c1 = 25.2 µM

Could you tell me which IC50 is on file for COc1cccc2c(=O)c3cc(Cl)cc(C(=O)Nc4cc(Cl)ccn4)c3[nH]c12 ?
27.5 µM

For Cc1ccc2nc(-c3ccc4nc(-c5ccc(NC(=O)c6cccc(Cl)c6)cc5)sc4c3)sc2c1S(=O)(=O)O then?
2.6 µM

---

# assayed_system: NS3h 2a[JFH1]
# assay_overview: NS3h unwinding inhibitors, genotype 1b and 2a – biochemical, real-time fluorescence, strains con1 and JFH1, set 3, selectivity assay for HCV NS3 helicase inhibitor project, late-stage follow-up (AID 602275)
# condition_context: Recombinant NS3h
Calls of active or inactive are those of the source. No rule for the calls is given here.
Outcome (select one): active, inactive

Cc1ccc2nc(-c3ccc4nc(NC(=O)c5ccc6ncoc6c5)sc4c3)sc2c1 = inactive
CCN(CC)c1ccc(-c2nc3ccc(C)c(S(=O)(=O)O)c3s2)cc1 = active
CCOc1ccc2nc(NC(=O)c3ccc4ncsc4c3)sc2c1 = inactive
Cc1ccc2nc(-c3ccc4nc(-c5ccc(NC(=O)c6cc(F)cc(C(F)(F)F)c6)cc5)sc4c3)sc2c1S(=O)(=O)O = active
COc1ccc(S(=O)(=O)Nc2ccc(-c3nc4ccc(-c5nc6ccc(C)c(S(=O)(=O)O)c6s5)cc4s3)cc2)cc1 = active
Cc1ccc2nc(-c3ccc4nc(-c5ccc(NC(=O)c6ccc(Br)cc6)cc5)sc4c3)sc2c1S(=O)(=O)O = active

State the result this test recorded for Cc1ccc2nc(-c3ccc4nc(-c5ccc(NC(=O)c6ccc(F)cc6)cc5)sc4c3)sc2c1S(=O)(=O)O .
active

---

Reported IC50 values for the following molecules.
# assayed_system: NS3h 2a[JFH1]
# assay_overview: NS3h unwinding inhibitors, genotype 1b and 2a – biochemical, real-time fluorescence, strains con1 and JFH1, set 3, selectivity assay for HCV NS3 helicase inhibitor project, late-stage follow-up (AID 602275)
# condition_context: Recombinant NS3h

Cc1ccc2nc(-c3ccc4nc(-c5ccc(NC(=O)c6cccc(C(F)(F)F)c6F)cc5)sc4c3)sc2c1S(=O)(=O)O = 8.1 µM
CS(=O)(=O)c1ccc2nc(NC(=O)c3ccc4ncsc4c3)sc2c1 = 21.3 µM

For NS3h 2a[JFH1], provide IC50 of Cc1ccc(C(=O)Nc2ccc(-c3nc4ccc(-c5nc6ccc(C)c(S(=O)(=O)O)c6s5)cc4s3)cc2)cc1 please.
2.5 µM

---

# assayed_system: NS3h 2a[JFH1]
# assay_overview: NS3h unwinding inhibitors, genotype 1b and 2a – biochemical, real-time fluorescence, strains con1 and JFH1, set 3, selectivity assay for HCV NS3 helicase inhibitor project, late-stage follow-up (AID 602275)
# condition_context: Recombinant NS3h
Activity calls are given as the source filed them. The rule behind the calls is not given here.
Outcome (select one): active, inactive

Previously resolved entries follow.
CCN(CC)c1ccc(-c2nc3ccc(-c4nc5ccc(C)c(S(=O)(=O)O)c5s4)cc3s2)cc1 = active
Cc1ccc2nc(-c3ccc(NC(=O)c4ccc(NC(=O)c5ccccc5)cc4)cc3)sc2c1S(=O)(=O)O = inactive
Cc1ccc2nc(-c3ccc4nc(-c5ccc(NS(=O)(=O)c6ccc(C(F)(F)F)cc6)cc5)sc4c3)sc2c1S(=O)(=O)O = active
Cc1ccc2nc(-c3ccc4nc(-c5ccc(NC(=O)Nc6ccc(C(F)(F)F)cc6)cc5)sc4c3)sc2c1S(=O)(=O)O = active
Cc1ccc2nc(-c3ccc4nc(-c5ccc(NC(=O)Nc6ccc(Cl)cc6)cc5)sc4c3)sc2c1S(=O)(=O)O = active

State the result this test recorded for Cc1ccc2nc(-c3ccc4nc(-c5ccc6nc(-c7ccc(N)cc7)sc6c5)sc4c3)sc2c1S(=O)(=O)O (tested in a mixture with another compound) .
active

For Cc1ccc2nc(-c3ccc4nc(-c5ccc(NC(=O)c6ccccc6)cc5)sc4c3)sc2c1S(=O)(=O)O then?
active

For Cc1ccc2nc(-c3ccc4nc(-c5ccc(NC(=O)c6cccc(C(F)(F)F)c6)cc5)sc4c3)sc2c1S(=O)(=O)O then?
active

For O=C(Nc1ccc(-c2nc3ccccc3[nH]2)cc1)c1ccc2ncsc2c1 then?
active

For Cc1ccc2nc(-c3ccc4nc(-c5ccc(N(C)C(=O)c6ccc7ccccc7c6)cc5)sc4c3)sc2c1S(=O)(=O)O then?
active
